Reference source for all entries: the supplement of paper PMC4862054

Field: normalised response. Provide a value for each of the compounds that follow.
- Tested on: BT-474
- PROTOCOL_DETAILS: normalised response (% of control), CellTox Green; higher = less cell death (100 = DMSO, 0 = benzethonium chloride kill control)
- SETTINGS: incubation time: 72 h
Give bare numbers, in %.

{"COMPOUND": "CO[C@H]1C[C@@H]2CC[C@@H](C)[C@@](O)(O2)C(=O)C(=O)N2CCCC[C@H]2C(=O)O[C@H]([C@H](C)C[C@@H]2CC[C@@H](OC(=O)C(C)(CO)CO)[C@H](OC)C2)CC(=O)[C@H](C)/C=C(\\C)[C@@H](O)[C@@H](OC)C(=O)[C@H](C)C[C@H](C)/C=C/C=C/C=C/1C [Temsirolimus] (100 nM)", "METRIC": "normalised response", "VAL": 91.2}
{"COMPOUND": "CCN1CCN(c2ccc(Nc3cc(N(C)C(=O)Nc4c(Cl)c(OC)cc(OC)c4Cl)ncn3)cc2)CC1 [NVP-BGJ398] (1000 nM)", "METRIC": "normalised response", "VAL": 102}
{"COMPOUND": "O=C(c1ccc(C(=O)N2CCC(N3CCCC3)CC2)c(Nc2ccccc2)c1)N1CCC(N2CCCC2)CC1 [UNC1215] (3000 nM)", "METRIC": "normalised response", "VAL": 96.9}
{"COMPOUND": "CO[C@H]1C[C@@H]2CC[C@@H](C)[C@@](O)(O2)C(=O)C(=O)N2CCCC[C@H]2C(=O)O[C@H]([C@H](C)C[C@@H]2CC[C@@H](OC(=O)C(C)(CO)CO)[C@H](OC)C2)CC(=O)[C@H](C)/C=C(\\C)[C@@H](O)[C@@H](OC)C(=O)[C@H](C)C[C@H](C)/C=C/C=C/C=C/1C [Temsirolimus] (1 nM)", "METRIC": "normalised response", "VAL": 89.6}
{"COMPOUND": "CN1CC[C@H](c2c(O)cc(O)c3c(=O)cc(-c4ccccc4Cl)oc23)[C@H](O)C1 [Alvocidib] (1000 nM)", "METRIC": "normalised response", "VAL": 90.2}
{"COMPOUND": "COc1cccc2c1C(=O)c1c(O)c3c(c(O)c1C2=O)C[C@@](O)(C(=O)CO)C[C@@H]3O[C@H]1C[C@H](N)[C@H](O)[C@H](C)O1 [Doxorubicin] (1000 nM)", "METRIC": "normalised response", "VAL": 105}
{"COMPOUND": "COc1cccc2cc(-c3nc([C@H]4CC[C@H](C(=O)O)CC4)n4ncnc(N)c34)[nH]c12 [OSI-027] (100 nM)", "METRIC": "normalised response", "VAL": 99.4}
{"COMPOUND": "Nc1ccn([C@@H]2O[C@H](CO)[C@@H](O)[C@@H]2O)c(=O)n1 [Cytarabine] (10000 nM)", "METRIC": "normalised response", "VAL": 100}
{"COMPOUND": "CN(C)C/C=C/C(=O)Nc1cc2c(Nc3ccc(F)c(Cl)c3)ncnc2cc1O[C@H]1CCOC1 [Afatinib] (100 nM)", "METRIC": "normalised response", "VAL": 81.3}
{"COMPOUND": "COc1cccc2c1C(=O)c1c(O)c3c(c(O)c1C2=O)C[C@@](O)(C(=O)CO)C[C@@H]3O[C@H]1C[C@H](N)[C@H](O)[C@H](C)O1 [Doxorubicin] (100 nM)", "METRIC": "normalised response", "VAL": 105}

// input: 3 compounds below; output: normalised response for each
1. CS(=O)(=O)c1ccc(C(=O)Nc2ccc(Cl)c(-c3ccccn3)c2)c(Cl)c1 [Vismodegib] (10000 nM)
2. Clc1ccc(C(c2ccccc2Cl)C(Cl)Cl)cc1 (stereo not drawn) [Mitotane] (100 nM)
3. COc1cccc2cc(-c3nc([C@H]4CC[C@H](C(=O)O)CC4)n4ncnc(N)c34)[nH]c12 [OSI-027] (10000 nM)

[102, 100, 94.2]

---

Field: normalised viability. Provide a value for each of the molecules that follow.
- Tested on: MFM-223
- PROTOCOL_DETAILS: normalised viability (% of control), CellTiter-Blue; higher = more viable cells (100 = DMSO, 0 = benzethonium chloride kill control)
- SETTINGS: incubation time: 72 h
Numbers only, in %.

Some molecules with recorded normalised viability:
{"MOLECULE": "C=CCNC1=C2C[C@@H](C)C[C@H](OC)[C@H](O)[C@@H](C)/C=C(\\C)[C@H](OC(N)=O)[C@@H](OC)/C=C\\C=C(/C)C(=O)NC(=CC1=O)C2=O [Tanespimycin] (1 nM)", "VAL": 90.8}
{"MOLECULE": "Cc1c2oc3c(C)ccc(C(=O)N[C@@H]4C(=O)N[C@H](C(C)C)C(=O)N5CCC[C@H]5C(=O)N(C)CC(=O)N(C)[C@@H](C(C)C)C(=O)O[C@@H]4C)c3nc-2c(C(=O)N[C@@H]2C(=O)N[C@H](C(C)C)C(=O)N3CCC[C@H]3C(=O)N(C)CC(=O)N(C)[C@@H](C(C)C)C(=O)O[C@@H]2C)c(N)c1=O [Dactinomycin] (0.1 nM)", "VAL": 104}
{"MOLECULE": "CN1CCC(COc2cnc(-c3cccc(Cn4nc(-c5cccc(C#N)c5)ccc4=O)c3)nc2)CC1 (1 nM)", "VAL": 101}

// input: 4 molecules below; output: normalised viability for each
1. C=CC[C@@H]1/C=C(\C)C[C@H](C)C[C@H](OC)[C@H]2O[C@@](O)(C(=O)C(=O)N3CCCC[C@H]3C(=O)O[C@H](/C(C)=C/[C@@H]3CC[C@@H](O)[C@H](OC)C3)[C@H](C)[C@@H](O)CC1=O)[C@H](C)C[C@@H]2OC [Tacrolimus] (1 nM)
2. CS(=O)(=O)c1ccc(C(=O)Nc2ccc(Cl)c(-c3ccccn3)c2)c(Cl)c1 [Vismodegib] (1 nM)
3. S=c1[nH]cnc2nc[nH]c12 [Mercaptopurine] (1 nM)
4. COc1cccc2cc(-c3nc([C@H]4CC[C@H](C(=O)O)CC4)n4ncnc(N)c34)[nH]c12 [OSI-027] (1 nM)

1: 116; 2: 96; 3: 95.9; 4: 95.9

---

Field: normalised response. Provide a value for each of the compounds that follow.
- Tested on: HDQ-P1
- PROTOCOL_DETAILS: normalised response (% of control), CellTiter-Glo; higher = more viable cells (100 = DMSO, 0 = benzethonium chloride kill control)
- SETTINGS: incubation time: 72 h
Numbers only, in %.

Some compounds with recorded normalised response:
{"COMPOUND": "Cc1ccc(F)c(NC(=O)Nc2ccc(-c3cccc4[nH]nc(N)c34)cc2)c1 [Linifanib] (0.1 nM)", "normalised response [%]": 102}
{"COMPOUND": "COc1cccc2c1C(=O)c1c(O)c3c(c(O)c1C2=O)C[C@@](O)(C(=O)CO)C[C@@H]3O[C@H]1C[C@H](N)[C@H](O)[C@H](C)O1 [Doxorubicin] (1 nM)", "normalised response [%]": 101}
{"COMPOUND": "Nc1nc(Cl)nc2c1ncn2[C@H]1C[C@H](O)[C@@H](CO)O1 [Cladribine] (1 nM)", "normalised response [%]": 97.8}
{"COMPOUND": "Clc1ccc(C(c2ccccc2Cl)C(Cl)Cl)cc1 (configuration not stated) [Mitotane] (1 nM)", "normalised response [%]": 97.8}
{"COMPOUND": "C=CCNC1=C2C[C@@H](C)C[C@H](OC)[C@H](O)[C@@H](C)/C=C(\\C)[C@H](OC(N)=O)[C@@H](OC)/C=C\\C=C(/C)C(=O)NC(=CC1=O)C2=O [Tanespimycin] (1000 nM)", "normalised response [%]": 22.8}

// input: 4 compounds below; output: normalised response for each
1. O=C(c1ccc(C(=O)N2CCC(N3CCCC3)CC2)c(Nc2ccccc2)c1)N1CCC(N2CCCC2)CC1 [UNC1215] (3000 nM)
2. COc1cc(Nc2ncc3c(n2)-c2ccc(Cl)cc2C(c2c(F)cccc2OC)=NC3)ccc1C(=O)O [Alisertib] (1000 nM)
3. CC[C@]1(O)C[C@@H]2CN(CCc3c([nH]c4ccccc34)[C@@](C(=O)OC)(c3cc4c(cc3OC)N(C)[C@H]3[C@@](O)(C(=O)OC)[C@H](OC(C)=O)[C@]5(CC)C=CCN6CC[C@]43[C@@H]65)C2)C1 [Vinblastine] (0.1 nM)
4. COc1cccc2c1C(=O)c1c(O)c3c(c(O)c1C2=O)C[C@@](O)(C(=O)CO)C[C@@H]3O[C@H]1C[C@H](N)[C@H](O)[C@H](C)O1 [Doxorubicin] (0.1 nM)

[100, 84.3, 99.4, 102]

// input: 4 compounds below; output: normalised response for each
1. COc1cccc2cc(-c3nc([C@H]4CC[C@H](C(=O)O)CC4)n4ncnc(N)c34)[nH]c12 [OSI-027] (1 nM)
2. CCN1CCN(c2ccc(Nc3cc(N(C)C(=O)Nc4c(Cl)c(OC)cc(OC)c4Cl)ncn3)cc2)CC1 [NVP-BGJ398] (0.1 nM)
3. CO[C@H]1C[C@@H]2CC[C@@H](C)[C@@](O)(O2)C(=O)C(=O)N2CCCC[C@H]2C(=O)O[C@H]([C@H](C)C[C@@H]2CC[C@@H](OC(=O)C(C)(CO)CO)[C@H](OC)C2)CC(=O)[C@H](C)/C=C(\C)[C@@H](O)[C@@H](OC)C(=O)[C@H](C)C[C@H](C)/C=C/C=C/C=C/1C [Temsirolimus] (10 nM)
4. Nc1nc(Cl)nc2c1ncn2[C@H]1C[C@H](O)[C@@H](CO)O1 [Cladribine] (0.1 nM)

96.3
101
77.4
96.3

// input: 8 compounds below; output: normalised response for each
1. COc1cc(Nc2ncc3c(n2)-c2ccc(Cl)cc2C(c2c(F)cccc2OC)=NC3)ccc1C(=O)O [Alisertib] (10 nM)
2. CN(C)C/C=C/C(=O)Nc1cc2c(Nc3ccc(F)c(Cl)c3)ncnc2cc1O[C@H]1CCOC1 [Afatinib] (0.1 nM)
3. COc1cccc2cc(-c3nc([C@H]4CC[C@H](C(=O)O)CC4)n4ncnc(N)c34)[nH]c12 [OSI-027] (1000 nM)
4. Cc1ccc(F)c(NC(=O)Nc2ccc(-c3cccc4[nH]nc(N)c34)cc2)c1 [Linifanib] (1 nM)
5. CN(C)C/C=C/C(=O)Nc1cc2c(Nc3ccc(F)c(Cl)c3)ncnc2cc1O[C@H]1CCOC1 [Afatinib] (1 nM)
6. C=CCNC1=C2C[C@@H](C)C[C@H](OC)[C@H](O)[C@@H](C)/C=C(\C)[C@H](OC(N)=O)[C@@H](OC)/C=C\C=C(/C)C(=O)NC(=CC1=O)C2=O [Tanespimycin] (10 nM)
7. S=c1[nH]cnc2nc[nH]c12 [Mercaptopurine] (1 nM)
8. OC[C@H]1O[C@@H](n2cnc3c2N=CNC[C@H]3O)C[C@@H]1O [Pentostatin] (1 nM)

1. 97.1
2. 108
3. 66.1
4. 104
5. 98.4
6. 98.2
7. 108
8. 100
